Assay: Tanguay_ZF_120hpf_PFIN_legacy: (Legacy) Oregon State University Tanguay Lab 120 Hour Post-fertilization zebrafish Assay for Pectoral Fin Malformation (AID 2283648);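 further: each larva judged yes or no for fin defect by brightfield with dead larvae skipped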
Records with an inconclusive call do not appear. Active and inactive are the calls of the source. How the source made its calls: active means hit-call score of the fitted dose curve at least 0.9, where 1 is the maximum; inconclusive means response in the unintended direction; inactive means score below 0.9.
Classes used: active, inactive

CCCCCCCCCCCCCCCO
inactive
O=C(O)c1cc(N=Nc2ccc(S(=O)(=O)Nc3ccccn3)cc2)ccc1O
inactive
CC[C@H]1CC[C@H](NCc2cc3c(cc2OC)[C@H]2C[C@H]2C(=O)N3C)[C@H](c2ccccc2)N1
inactive
C[C@](N)(Cc1ccc(O)c(O)c1)C(=O)O
inactive
CC(C)=CCCC(C)CCO (stereo not given)
inactive
CCC(C)(C)C(=O)O[C@H]1C[C@@H](C)C=C2C=C[C@H](C)[C@H](CC[C@@H]3C[C@@H](O)CC(=O)O3)[C@H]21
active
CNS(=O)(=O)c1cc(C(=O)N2CCC(CCN3C4CCC3CC(n3c(C)nc5ccccc53)C4)(c3cccc(F)c3)CC2)c(Cl)cc1F (stereo not given)
inactive
CC(C)(O)c1coc(S(=O)(=O)NC(=O)Nc2c3c(cc4c2CCC4)CCC3)c1
inactive
O=c1[nH]c2ccc(S(=O)CCN3CCC(Cc4ccc(F)cc4)CC3)cc2o1 (stereo not given)
inactive
COC(=O)c1ccccc1O
inactive

FYI, the data here is from PubChem BioAssay (EPA / NIEHS).
